systemUnderTest: human Gastric Inhibitory Peptide Receptor (human) (UniProt P48546)
Sequence (P48546 22-466 limits assumed): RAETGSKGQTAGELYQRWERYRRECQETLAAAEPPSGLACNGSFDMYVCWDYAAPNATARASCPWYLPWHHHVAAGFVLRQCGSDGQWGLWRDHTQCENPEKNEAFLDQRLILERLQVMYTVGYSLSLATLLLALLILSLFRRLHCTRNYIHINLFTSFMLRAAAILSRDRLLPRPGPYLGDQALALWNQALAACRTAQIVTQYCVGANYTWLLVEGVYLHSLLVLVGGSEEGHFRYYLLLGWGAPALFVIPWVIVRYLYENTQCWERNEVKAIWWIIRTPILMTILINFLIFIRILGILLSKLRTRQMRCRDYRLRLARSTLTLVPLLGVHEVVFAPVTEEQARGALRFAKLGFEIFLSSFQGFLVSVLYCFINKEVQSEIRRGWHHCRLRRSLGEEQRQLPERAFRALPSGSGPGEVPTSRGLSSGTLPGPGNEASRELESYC
assayText: FACS competition with GIP-057 on CHO-K1-hGIPR cells; pIC50 category A: >8.0
*1 amine or outer side, *2 acyl side, *3 side chain or, on linkers, in order; H or OH if unused. Bridges are numbered along the chain shown (N, C = ends). [ ]: non-standard residue; d: D form. dE(AGLU) = D-glutamic acid bearing 1-amino-1-deoxy-D-glucitol; Trp(5-Cl) = N[C@@H](Cc1c[nH]c2ccc(Cl)cc12)C(=O)O; Pyridine(2,6-diCH2) = c1cc(C[*:1])nc(C[*:2])c1; APAc = 4-amino-1-carboxymethylpiperidine; Glutaryl = O=C(CCCC(=O)[*:2])[*:1]; AGLU = 1-amino-1-deoxy-D-glucitol; Hyp = O=C(O)[C@@H]1C[C@@H](O)CN1; Thp = NC1(C(=O)O)CCOCC1
assayEndpoint: pIC50

Query: pIC50; subject: {AGLU-Glutaryl}-DW[Trp(5-Cl)][Hyp]E[dL]C[Thp]LIC-{APAc-dE(AGLU)-NH2} (linker 7-11 via Pyridine(2,6-diCH2)) [AGLU-Glutar-Asp-Trp-5Clw-Hyp-Glu-leu-[Cys(2Lut)-Thp-Leu-Ile-Cys]-APAc-glu(AGLU)-NH2]
> 8 pic50
